Target: human C5a receptor (Homo sapiens)
Construct: alternatively isolated human neutrophils (endogenous receptor)
Experiment: Inhibition of C5aR ligand binding (125I labeled C5a)
Conditions: 125I labeled C5a binding to C5aR expressing cells (L1.2 C5aR cells or neutrophils)
QUANTITY: IC50

Study these solved cases before continuing.
COMPOUND	QUANTITY	RESULT
CCOC(=O)C1=C(CCC2CCCC2)NC2=C(C(=O)CC(c3c(C)cc(C)cc3C)C2)C1c1cccc2[nH]ccc12 (stereo not shown) [Compound 1.008]	IC50	< 1 µM
CC1=C(C(=O)OC2CCCC2)C(c2cccc(O)c2)C2=C(CC(c3ccc(C)c(F)c3)CC2=O)N1 (stereo not shown) [Compound 1.002]	IC50	< 1 µM
Cc1cc(C)c(C2CC(=O)C3=C(C2)NC(C2CC2)=C(C(=O)OC2CCCC2)C3c2cccc(O)c2)c(C)c1 (stereo not shown) [Compound 1.001]	IC50	< 1 µM
CC1=C(C(=O)OC2CCCC2)C(c2cccc(O)c2)C2=C(CN(c3ccccc3)CC2=O)N1 (stereo not shown) [Compound 1.007]	IC50	1 to 10 µM
CC1=C(C(=O)OC2CCCC2)C(c2cccc(O)c2)C2=C(CC(c3ccc(-c4ccccc4)cc3)CC2=O)N1 (stereo not shown) [Compound 1.005]	IC50	1 to 10 µM

Data request: Form field: reported IC50 of CC1=C(C(=O)OC2CCCC2)C(c2cccc(O)c2)C2=C(CC(c3ccc4ccccc4c3)CC2=O)N1 (stereo not shown) [Compound 1.006]
Data returned: < 1 µM

Data request: What value of measured IC50 is listed for CC1=C(C(=O)OC2CCCC2)C(c2cccc(O)c2)C2=C(CC(C3CCCCC3)CC2=O)N1 (stereo not shown) [Compound 1.004] ?
Data returned: < 1 µM

###

Measured IC50 values are reported for all entries that follow.
Biological target: human C5a receptor (Homo sapiens, UniProt P21730)
Construct: alternatively isolated human neutrophils (endogenous receptor)
Sequence (P21730 1-350): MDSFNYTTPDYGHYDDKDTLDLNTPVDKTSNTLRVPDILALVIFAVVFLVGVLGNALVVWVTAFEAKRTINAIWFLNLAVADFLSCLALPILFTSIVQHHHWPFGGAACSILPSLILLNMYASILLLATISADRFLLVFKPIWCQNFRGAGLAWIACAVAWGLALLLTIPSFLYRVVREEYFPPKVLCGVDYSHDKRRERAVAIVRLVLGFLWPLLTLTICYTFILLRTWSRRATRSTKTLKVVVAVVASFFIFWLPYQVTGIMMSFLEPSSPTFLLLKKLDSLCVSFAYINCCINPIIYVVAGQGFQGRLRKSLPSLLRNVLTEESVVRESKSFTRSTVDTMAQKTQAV
Test: Inhibition of C5aR ligand binding (125I labeled C5a)
Settings: 125I labeled C5a binding to C5aR expressing cells (L1.2 C5aR cells or neutrophils)

MOLECULE	QUANTITY	RESULT
O=C1CC(c2ccc3c(c2)OCO3)CC2=C1C(c1cccc(O)c1)C(C(=O)OC1CCCC1)=C(CC1CCCC1)N2 (stereo not drawn) [Compound 1.009]	IC50	< 1000 nM
CC(C)C1=C(C(=O)OC2CCCC2)C(c2cccc(O)c2)C2=C(CC(c3c(Cl)cncc3Cl)CC2=O)N1 (stereo not drawn) [Compound 1.010]	IC50	1000 to 10000 nM

Data request: So what does the record say about IC50 for CC1=C(C(=O)OC2CCCC2)C(c2cccc(O)c2)C2=C(CC(c3ccc(C(F)(F)F)cc3)CC2=O)N1 (stereo not drawn) [Compound 1.003] ?
Data returned: < 1000 nM

Data provenance is patent US20070112015A1.
